B1: library; a variant is named by its letters at N, in order (parent)
chain: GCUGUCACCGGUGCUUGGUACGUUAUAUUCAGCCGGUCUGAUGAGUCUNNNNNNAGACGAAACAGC

variants of: B1; test: normalized RNA/DNA level without ligand (relative to sTRSVctl = 100) (log10 (% of sTRSVctl)); HEK293T overexpressing SLC46A1; higher = less ribozyme self-cleavage, higher mRNA level; settings: without (6R,S)-folinic acid; ligand present: no
measured.attribute: normalized RNA/DNA level without ligand (log10)
Answers are plain numbers.

Below are worked cases with known answers.
> print(dat)
      var  measured.value
1  GCCCUC            2.05
2  ACGUAG            1.91
3  GAAUCA            2.02
4  AGGCCC            2.07
5  AUUACU            2.04
6  UAAACC            2.01
7  ACCACA            2.02
8  UCCUGG            1.91

Working through the 2 variants below one at a time, give normalized RNA/DNA level without ligand (log10) for each.
1. CUAGGC
2. CCAUAG

Completion:
2
1.92
